assay: Cytotoxicity against mouse P388D1 cells after 48 hrs by MTT assay; format: functional, cell-based; conditions: P388D1, 48 h
readout: log10 of IC50 (log10 of the value in µM)
All values: log10 IC50 [µM].

Form field log10 of IC50, entry "CCCCNc1cc2c3c(cccc3c1)C(=O)N(CCN(C)C)C2=O" : 0.97

log10 of IC50 in this record for "CN(C)CCN1C(=O)c2cccc3cc(N4CCCCC4)cc(c23)C1=O" : 1.33

----------
// Kb lookup, one value per entry
system: DNA; assay: Binding affinity to calf thymus DNA assessed as Scatchard binding constant by fluorescence quenching technique; assay type: nucleic-acid assay; details: Bos taurus
Number only, in ×10⁵ /M; omit the unit.

Recorded results for 5 molecules are shown here.
molecule=CN(C)CCN1C(=O)c2cccc3cc(N4CCSCC4)cc(c23)C1=O readout_units="×10⁵ /M" measured_value=0.79
molecule=CN(C)CCN1C(=O)c2cccc3cc(N4CCCCC4)cc(c23)C1=O readout_units="×10⁵ /M" measured_value=0.85
molecule="CN(C)CCN1C(=O)c2cccc3cc(N)cc(c23)C1=O [AMONAFIDE]" readout_units="×10⁵ /M" measured_value=1.05
molecule=CN(C)CCCNc1cc2c3c(cccc3c1)C(=O)N(CCN(C)C)C2=O readout_units="×10⁵ /M" measured_value=1.75
molecule=CN(C)CCNc1cc2c3c(cccc3c1)C(=O)N(CCN(C)C)C2=O readout_units="×10⁵ /M" measured_value=1.85

Entry "CN(C)CCN1C(=O)c2cccc3cc(N4CCOCC4)cc(c23)C1=O" : Kb on DNA = 0.97

The reported Kb value, DNA, for "CCCCNc1cc2c3c(cccc3c1)C(=O)N(CCN(C)C)C2=O" reads 1.23

Given the molecule "CN(C)CCN1C(=O)c2cccc3cc(NCc4cccs4)cc(c23)C1=O" and test system DNA, the measured Kb is 1.06

Kb of "CN(C)CCN1C(=O)c2cccc3cc(N4CCN(C)CC4)cc(c23)C1=O" , assay on DNA, is 2.48

----------
assay: Cytotoxicity against mouse P388D1 cells after 48 hrs by MTT assay; format: functional, cell-based; settings: P388D1, 48 h
readout: pIC50
Lab note — pIC50 values are minus log10 of concentrations in M.

compound="CN(C)CCN1C(=O)c2cccc3cc(N)cc(c23)C1=O [AMONAFIDE]" readout=pIC50 measured_value=5.22
compound=CN(C)CCN1C(=O)c2cccc3cc(NCc4cccs4)cc(c23)C1=O readout=pIC50 measured_value=5.02
compound=CN(C)CCCNc1cc2c3c(cccc3c1)C(=O)N(CCN(C)C)C2=O readout=pIC50 measured_value=6.15
compound=CN(C)CCN1C(=O)c2cccc3cc(N4CCN(C)CC4)cc(c23)C1=O readout=pIC50 measured_value=5.71
compound=CN(C)CCNc1cc2c3c(cccc3c1)C(=O)N(CCN(C)C)C2=O readout=pIC50 measured_value=6.21
compound=CN(C)CCN1C(=O)c2cccc3cc(N4CCSCC4)cc(c23)C1=O readout=pIC50 measured_value=4.44

Now for a further compound.
Consider "CN(C)CCN1C(=O)c2cccc3cc(N4CCOCC4)cc(c23)C1=O" . Its measured pIC50 is 5.03
